Target: tetanus neurotoxin (TeNT), authentic tetanus holotoxin (Clostridium tetani, UniProt P04958 2-1315)
Sequence (P04958 2-457 limits assumed, chain 1 of 2): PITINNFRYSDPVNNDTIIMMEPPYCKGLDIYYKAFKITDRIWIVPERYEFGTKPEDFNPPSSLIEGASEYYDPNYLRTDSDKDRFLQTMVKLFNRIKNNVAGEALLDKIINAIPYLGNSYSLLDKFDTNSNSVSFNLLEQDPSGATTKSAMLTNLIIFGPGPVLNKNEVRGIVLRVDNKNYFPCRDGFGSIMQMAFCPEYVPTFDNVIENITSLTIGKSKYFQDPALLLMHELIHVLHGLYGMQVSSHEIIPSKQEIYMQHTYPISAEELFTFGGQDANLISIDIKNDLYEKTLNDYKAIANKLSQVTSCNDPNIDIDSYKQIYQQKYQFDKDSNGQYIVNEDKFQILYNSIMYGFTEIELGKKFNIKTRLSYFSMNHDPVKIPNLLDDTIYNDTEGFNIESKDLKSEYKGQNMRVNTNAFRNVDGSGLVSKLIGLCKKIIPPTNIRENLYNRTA
Sequence (P04958 458-1315 limits assumed, chain 2 of 2): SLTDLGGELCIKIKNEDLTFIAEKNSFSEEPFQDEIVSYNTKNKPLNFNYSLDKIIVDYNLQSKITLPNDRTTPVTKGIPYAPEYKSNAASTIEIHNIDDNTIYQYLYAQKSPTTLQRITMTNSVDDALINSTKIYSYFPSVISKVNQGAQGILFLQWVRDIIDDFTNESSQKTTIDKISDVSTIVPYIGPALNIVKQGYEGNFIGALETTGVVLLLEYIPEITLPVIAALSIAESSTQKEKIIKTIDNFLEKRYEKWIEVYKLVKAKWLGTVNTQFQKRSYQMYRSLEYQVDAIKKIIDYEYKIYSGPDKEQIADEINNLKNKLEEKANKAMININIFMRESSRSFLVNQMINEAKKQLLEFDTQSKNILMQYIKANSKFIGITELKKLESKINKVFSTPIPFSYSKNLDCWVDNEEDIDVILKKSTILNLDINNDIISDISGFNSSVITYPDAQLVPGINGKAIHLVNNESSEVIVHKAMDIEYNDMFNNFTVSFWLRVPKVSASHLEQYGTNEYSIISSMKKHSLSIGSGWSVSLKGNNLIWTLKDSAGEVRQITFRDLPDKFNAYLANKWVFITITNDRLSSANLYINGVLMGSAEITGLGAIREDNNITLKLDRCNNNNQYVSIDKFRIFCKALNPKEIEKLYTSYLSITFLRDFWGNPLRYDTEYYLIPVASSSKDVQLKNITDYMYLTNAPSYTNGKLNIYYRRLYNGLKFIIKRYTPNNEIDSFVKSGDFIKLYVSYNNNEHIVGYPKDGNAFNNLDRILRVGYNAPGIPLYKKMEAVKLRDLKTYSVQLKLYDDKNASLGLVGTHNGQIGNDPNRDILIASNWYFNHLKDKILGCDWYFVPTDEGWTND
Test: GT1b-TeNT inhibition ELISA, unlabelled binder

binder	minimal absorbance at 450 nm
SVT31L (VHH) VHH: QVQLQESGGGSVQAGGSLTLSCAASEFSYNDYTIAWFRRAAGKGRVEDGEGVASITKSYDRAYDNRIHYADSVKGRFTISRDNAKNTVYLQMTSLNPSDTAVYYCALDITPPGGIGASLTEGFLFDYWGQGTQVTVSS	0.568
SVT08L (VHH) VHH: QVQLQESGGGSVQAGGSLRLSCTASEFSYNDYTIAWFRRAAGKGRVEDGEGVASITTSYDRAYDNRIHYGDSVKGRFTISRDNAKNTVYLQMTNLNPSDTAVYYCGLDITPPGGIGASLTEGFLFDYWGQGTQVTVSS	0.486
SVT06L (VHH) VHH: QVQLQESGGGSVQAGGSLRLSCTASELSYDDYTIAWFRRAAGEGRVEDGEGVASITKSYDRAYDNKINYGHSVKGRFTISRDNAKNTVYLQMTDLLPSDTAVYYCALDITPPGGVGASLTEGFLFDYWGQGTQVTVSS	0.481

Cited source: patent US20240376185A1
